Assay: NCI Yeast Anticancer Drug Screen. Data for the sgs1 mgt1 strain (AID 161)
Settings: S. cerevisiae sgs1 mgt1 strain, at 50.0 µM, active compounds read high
The panel holds about 79,000 compounds, 15% with a hit somewhere; the sample as a whole holds those more often. Residues, ends and D or L forms follow the SMILES beside them. *: point of attachment. Fmoc = O=C(OCC1c2ccccc2-c2ccccc21)*; Boc = CC(C)(C)OC(=O)*
The label depends only on growth inhibition: MET if it is at least 90%, NOT MET if it is smaller.

CCC(/C=C/c1ccccc1)=N\Nc1ccc(Cl)cc1 :: NOT MET

Given the entry "O=[N+]([O-])c1ccc(C(c2c[nH]c3ccccc23)c2c[nH]c3ccccc23)cc1" , answer whether its growth inhibition meets or surpasses 90%.
MET

Given the entry O=S(=O)(c1cccc(C(F)(F)F)c1)N1c2ccccc2-n2cccc2C1c1cccnc1 (stereo unspecified) , answer whether its growth inhibition meets or surpasses 90%.
MET

Given the entry Cc1ccc(NC(=O)CCC(=O)C(C)C(=O)c2ccccc2)c(C)c1 (stereo unspecified) , answer whether its growth inhibition meets or surpasses 90%.
NOT MET

Given the entry "c1c[nH]c(CN2CCN(Cc3ncc[nH]3)CC2)n1" , answer whether its growth inhibition meets or surpasses 90%.
MET

Given the entry "S=C1N(c2ccc(Cl)cc2)C2=C(N=Nc3ccccc3)C(=Nc3ccccc3S2)N1c1ccccn1" , answer whether its growth inhibition meets or surpasses 90%.
MET

Given the entry "COc1c2c(c3c(c1CCC(=O)O)OC(C)(C)C=C3)OC(C)(C)C=C2" , answer whether its growth inhibition meets or surpasses 90%.
NOT MET

Given the entry O=C(Cc1ccccc1)NN1C(=O)C(Cl)C1c1cc(Br)cc(Br)c1O (stereo unspecified) , answer whether its growth inhibition meets or surpasses 90%.
MET

Given the entry CC(C)(C)OC(=O)NCCCCC(NC(=O)C(Cc1c[nH]c2ccccc12)NC(=O)OCC1c2ccccc2-c2ccccc21)C(=O)O (stereo unspecified) (Fmoc-Trp-Lys(Boc)-OH; configuration not given here) , answer whether its growth inhibition meets or surpasses 90%.
NOT MET

Given the entry "CC1=CC(C)(C)SC(SSSC2=NC(C)=CC(C)(C)S2)=N1" , answer whether its growth inhibition meets or surpasses 90%.
NOT MET

Given the entry "O=C1C(=O)N(c2ccccc2)[C@@]2(c3ccccc3)C(=Nc3ccccc3)OC(c3ccccc3)=C12" , answer whether its growth inhibition meets or surpasses 90%.
NOT MET

Given the entry "CC(C)OC(=O)NNc1cc(Cl)ccc1Cl" , answer whether its growth inhibition meets or surpasses 90%.
NOT MET

Source listed as PubChem BioAssay (NCI).
